Assay: activity coefficient (dimensionless); of the first substance listed, at infinite dilution; xn = mol fraction of the nth substance listed
Conditions: 308.15 K; 101 kPa; Liquid; Chromatography; x1 = 0
Reported activity coefficient by item:
measured-parameter: activity coefficient

In [3]: df
Out[3]:
                                   compound  quantitative_readout
0  O [water] + CCCCCCOCn1cc[n+](COCCCCCC)c1.O=S(=O)([N-]S(=O)(=O)C(F)(F)F)C(F)(F)F                   3.8
1  C#CCCCCC [1-heptyne] + CCCCCCOCn1cc[n+](C)c1.O=S(=O)([N-]S(=O)(=O)C(F)(F)F)C(F)(F)F                  2.45
2  CCCO [propan-1-ol] + CCCCCCOCn1cc[n+](C)c1.O=S(=O)([N-]S(=O)(=O)C(F)(F)F)C(F)(F)F                  1.64
3  COC(C)(C)C [2-methoxy-2-methylpropane] + CCCCCCOCn1cc[n+](C)c1.O=S(=O)([N-]S(=O)(=O)C(F)(F)F)C(F)(F)F                  1.29
4  CCCCCCCCC [nonane] + CCCCCCOCn1cc[n+](COCCCCCC)c1.O=S(=O)([N-]S(=O)(=O)C(F)(F)F)C(F)(F)F                  5.67
5  CCCOCCC [dipropyl ether] + CCCCCCOCn1cc[n+](COCCCCCC)c1.O=S(=O)([N-]S(=O)(=O)C(F)(F)F)C(F)(F)F                  1.49
6  CCCCCC [hexane] + CCCCCCOCn1cc[n+](COCCCCCC)c1.O=S(=O)([N-]S(=O)(=O)C(F)(F)F)C(F)(F)F                  3.13
7  C1CCCCC1 [cyclohexane] + CCCCCCOCn1cc[n+](COCCCCCC)c1.O=S(=O)([N-]S(=O)(=O)C(F)(F)F)C(F)(F)F                  2.22
